Biological target: Multidrug resistance-associated protein 1 (Homo sapiens)
Sequence (P33527 whole entry): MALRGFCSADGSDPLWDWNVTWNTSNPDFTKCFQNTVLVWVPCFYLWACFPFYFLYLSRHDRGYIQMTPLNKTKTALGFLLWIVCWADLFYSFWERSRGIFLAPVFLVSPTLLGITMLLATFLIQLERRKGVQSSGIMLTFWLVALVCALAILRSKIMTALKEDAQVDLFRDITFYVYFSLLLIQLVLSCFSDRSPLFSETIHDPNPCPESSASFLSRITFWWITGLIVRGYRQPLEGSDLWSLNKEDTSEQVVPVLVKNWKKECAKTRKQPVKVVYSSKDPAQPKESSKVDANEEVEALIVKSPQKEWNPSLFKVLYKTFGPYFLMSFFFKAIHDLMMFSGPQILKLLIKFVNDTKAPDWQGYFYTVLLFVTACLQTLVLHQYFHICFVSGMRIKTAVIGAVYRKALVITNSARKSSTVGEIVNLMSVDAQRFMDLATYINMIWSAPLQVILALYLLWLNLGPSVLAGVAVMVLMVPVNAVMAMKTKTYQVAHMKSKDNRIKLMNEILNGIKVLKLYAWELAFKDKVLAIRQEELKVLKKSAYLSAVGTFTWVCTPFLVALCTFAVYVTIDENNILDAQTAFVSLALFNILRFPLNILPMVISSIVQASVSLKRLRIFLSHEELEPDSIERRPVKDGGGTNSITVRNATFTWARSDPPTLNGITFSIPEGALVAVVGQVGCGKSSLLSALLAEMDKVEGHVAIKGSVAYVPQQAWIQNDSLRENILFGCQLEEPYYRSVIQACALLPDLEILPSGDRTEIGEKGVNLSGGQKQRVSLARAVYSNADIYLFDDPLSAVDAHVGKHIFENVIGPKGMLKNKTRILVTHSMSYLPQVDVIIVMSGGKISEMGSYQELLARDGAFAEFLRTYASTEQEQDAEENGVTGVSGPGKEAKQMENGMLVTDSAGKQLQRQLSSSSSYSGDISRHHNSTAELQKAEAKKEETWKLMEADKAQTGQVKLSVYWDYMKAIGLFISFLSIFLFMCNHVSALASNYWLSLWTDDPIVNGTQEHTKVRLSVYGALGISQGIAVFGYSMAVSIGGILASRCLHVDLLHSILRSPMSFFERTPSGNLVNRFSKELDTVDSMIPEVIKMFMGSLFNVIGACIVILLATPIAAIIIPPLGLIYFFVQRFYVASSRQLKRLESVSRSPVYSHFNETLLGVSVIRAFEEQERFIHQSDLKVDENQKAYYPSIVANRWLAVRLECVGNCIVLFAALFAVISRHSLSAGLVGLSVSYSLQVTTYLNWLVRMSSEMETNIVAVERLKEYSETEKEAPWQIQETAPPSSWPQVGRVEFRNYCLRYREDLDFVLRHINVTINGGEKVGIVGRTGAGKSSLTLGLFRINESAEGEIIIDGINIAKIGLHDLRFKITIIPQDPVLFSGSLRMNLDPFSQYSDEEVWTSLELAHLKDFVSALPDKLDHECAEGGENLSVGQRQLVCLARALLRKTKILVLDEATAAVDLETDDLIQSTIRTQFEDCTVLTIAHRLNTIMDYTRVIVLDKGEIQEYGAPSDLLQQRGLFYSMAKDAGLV
Assay: Inhibition of human MRP1 expressed in 2008 cells at 10 uM preincubated for 30 mins prior to calcein AM addition measured every 60 secs up to 90 mins by calcein AM accumulation assay
Assay type: cell-based
Details: human, 2008, 10 µM
QUANTITY: inhibition (INH)

> print(dat)
                           structure.string  test.result
1  COc1ccc(Nc2nc(-c3ccccc3)nc3ccccc23)cc1OC       Active
2    Brc1cccc(Nc2nc(-c3ccccc3)nc3ccccc23)c1       Active
3  O=[N+]([O-])c1ccc(Nc2nc(-c3ccccc3)nc3ccccc23)cc1   Not Active
4  O=[N+]([O-])c1cccc(Nc2nc(-c3ccccc3)nc3ccccc23)c1   Not Active
5  FC(F)(F)c1cccc(Nc2nc(-c3ccccc3)nc3ccccc23)c1   Not Active
